assayed target: T1, human IL6R-Fc protein (human, biotin-labeled in the ELISAs (sites not given))
T1 construct: In house made; also called biotin-labeled human IL6R-Fc protein
T1 sequence (chain, as listed by the source limits assumed): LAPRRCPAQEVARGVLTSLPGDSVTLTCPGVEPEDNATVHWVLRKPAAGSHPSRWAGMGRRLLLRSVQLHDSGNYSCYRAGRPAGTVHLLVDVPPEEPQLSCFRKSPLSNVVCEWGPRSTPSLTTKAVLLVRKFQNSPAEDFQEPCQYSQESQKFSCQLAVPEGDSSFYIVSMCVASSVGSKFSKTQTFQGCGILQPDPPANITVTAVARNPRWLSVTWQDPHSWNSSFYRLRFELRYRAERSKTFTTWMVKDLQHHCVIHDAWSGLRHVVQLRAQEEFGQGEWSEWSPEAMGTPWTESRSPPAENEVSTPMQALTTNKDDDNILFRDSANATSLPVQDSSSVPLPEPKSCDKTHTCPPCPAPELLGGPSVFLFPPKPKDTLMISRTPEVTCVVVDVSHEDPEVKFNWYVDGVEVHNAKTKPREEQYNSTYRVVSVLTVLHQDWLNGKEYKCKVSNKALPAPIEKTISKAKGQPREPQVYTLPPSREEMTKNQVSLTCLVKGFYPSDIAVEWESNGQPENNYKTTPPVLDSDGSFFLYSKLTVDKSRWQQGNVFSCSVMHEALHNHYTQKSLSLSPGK
test name: ligand blocking ELISA: antibody pre-incubated with biotin-labeled human IL6R-Fc, added to plate-coated human IL6 (blocked ligand: human IL6)
So I've got a bunch of binders here, and I need their IC50 values.
Numbers only here, please. The scale is nM.

Documented IC50 of mouse anti-IL6R monoclonal antibody 1H7 (antibody, V domains shown, Mouse hybridoma mAb) VH: QVQLQQPGTELVKPGASVKLSCKASGYTFTNYWMHWVKQRPGQGLDWIGEINPTNGRTNYNENFKSKATLTVDKSSSTAYMQLSSLTSEDSAVYYCARLNTHYVFDSWGQGTTLTLSS VL: EIVLTQSPTTLAASPGEKITFTCSVSSSISSNYLHWYQQKPGFSPKLLISRTSTLASGVPARFSGSGSGTSYSLTIGTMEAEDVATYYCQQGSGIPFTFGSGTKLELK : 0.189

Value of measured IC50 for the entry Chimeric 1H7 (antibody, human IgG1, kappa, V domains shown, Mouse variable regions on human IgG1 / human kappa constant regions; also called chimeric antibody 1H7) VH: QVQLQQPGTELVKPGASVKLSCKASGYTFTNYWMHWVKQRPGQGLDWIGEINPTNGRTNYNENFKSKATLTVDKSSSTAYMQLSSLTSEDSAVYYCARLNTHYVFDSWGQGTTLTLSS VL: EIVLTQSPTTLAASPGEKITFTCSVSSSISSNYLHWYQQKPGFSPKLLISRTSTLASGVPARFSGSGSGTSYSLTIGTMEAEDVATYYCQQGSGIPFTFGSGTKLELKR : 0.161

Recorded IC50 (binder humanized antibody hu1H7-V5 (antibody, human IgG1, kappa, V domains shown, Human IgG1 / kappa) VH: QVQLVQSGAEVKKPGASVKVSCKASGYTFTNYWMHWVRQAPGQGLEWIGEINPTNGRTNYNENFKSRVTLTVDTSTSTVYMELSSLRSEDTAVYYCARLNTHYVFDSWGQGTLVTVSS VL: EIVLTQSPGTLSLSPGERATLSCSVSSSISSNYLHWYQQKPGLSPRLLISRTSTLASGIPARFSGSGSGTEYTLTISRMQSEDFAVYYCQQGSGIPFTFGQGTKLEIKR ): 0.223
